Biological target: T1, PUF4 RNA-binding domain (Saccharomyces cerevisiae, UniProt P25339 537-888)
T1 sequence: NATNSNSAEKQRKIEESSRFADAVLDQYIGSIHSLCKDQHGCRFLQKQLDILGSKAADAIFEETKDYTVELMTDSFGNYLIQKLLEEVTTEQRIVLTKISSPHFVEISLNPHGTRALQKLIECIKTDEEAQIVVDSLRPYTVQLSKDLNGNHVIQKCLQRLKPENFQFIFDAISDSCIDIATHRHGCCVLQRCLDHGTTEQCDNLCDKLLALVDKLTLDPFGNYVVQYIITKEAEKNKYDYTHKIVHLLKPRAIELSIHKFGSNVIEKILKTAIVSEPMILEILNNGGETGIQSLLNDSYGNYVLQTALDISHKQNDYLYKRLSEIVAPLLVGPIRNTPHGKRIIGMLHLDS
Test: Mg; RNA-MaP; 20 mM Na-HEPES pH 7.4, 30 mM KOAc, 0.75 mM MgCl2, 0.1% Tween-20, 5% glycerol, 0.1 mg/mL BSA, 2 mM DTT; 25 C; 0.0125-409.6 nM protein
Conditions: tags: N-His6-TEV cleaved; C-SNAP kept, Cy3B-labelled; label: tethered on chip by stalled RNA polymerase
pKd: −log10 of the molar value.
Measured Endpoint: pKd

binder="Ie_S4_P5E.1_K5.1_C5.1_H5.1_[+3CTCT]_A5.1_F5.1_T5.1 (ssRNA) RNA: UUUGACAACUGAUCGUUCUUUCUUGUCUCUAUUAUUAUUCUUUCUCGAUCAGUUGUCUUU" qual== value_measured=7.25
binder="UCUCUUUGUAUCCCUUUAUUAUCUCUU (ssRNA) [Ie_S1_P5E.1_K5.1_C5.1_H5.1_A5.1_[+5CCCTT]_F5.1_T5.1]" qual== value_measured=7.22
binder="UCUCUUGUUAUAUUAUUACUUCUCUU (ssRNA) [Id_ii_S1_P5E.3_K5.2_C5.2_[C-2G]_H5.2_A5.1_F5.1_T5.2_[T11C]_[A12T]]" qual== value_measured=7.87
binder="UCUCUUCGUGUAUAUUAGUUCUCUU (ssRNA) [Id_ii_S1_P4E.2_K4.1_C4.2_[T-1G]_H4.1_A4.1_F4.1_T4.2]" qual== value_measured=9.40
binder="Id_ii_S2_P4E.2_K4.1_C4.2_[C-2T]_[T-1A]_H4.1_A4.1_F4.1_T4.2_[G10T]_[T11C] (ssRNA) RNA: UUUGAUUAAUAUGAUAUCGUUCUUUCUUAUGUAUAUUAUCUUCUUUCUCGAUAUCAUAUUAAUCUUU" qual== value_measured=9.21
binder="UCUCUUUCUAUUAUUGUCUCUU (ssRNA) [Ib_S1_P5E.1_K5.1_C5.1_H5.1_[G2C]_A5.1_F5.1_[A10G]_T5.1]" qual=< value_measured=5.64
